Molecular target: Protein cereblon/Bromodomain-containing protein 4 (Homo sapiens, UniProt O60885+Q96SW2)
Sequence (Q96SW2 whole entry, looked up, other chains not shown): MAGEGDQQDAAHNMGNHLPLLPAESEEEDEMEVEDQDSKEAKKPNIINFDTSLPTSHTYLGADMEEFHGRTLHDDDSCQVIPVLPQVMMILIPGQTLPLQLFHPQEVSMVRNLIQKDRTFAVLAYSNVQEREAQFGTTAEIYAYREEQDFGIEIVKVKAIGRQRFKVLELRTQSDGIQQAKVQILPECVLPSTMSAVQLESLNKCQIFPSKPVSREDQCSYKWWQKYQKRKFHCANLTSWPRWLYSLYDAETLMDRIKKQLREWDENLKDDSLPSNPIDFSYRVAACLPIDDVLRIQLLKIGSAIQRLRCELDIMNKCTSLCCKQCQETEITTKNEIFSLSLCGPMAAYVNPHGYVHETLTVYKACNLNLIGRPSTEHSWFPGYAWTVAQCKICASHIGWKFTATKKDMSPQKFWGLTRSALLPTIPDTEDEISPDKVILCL
Test: PROTAC activity at CRBN/Hibit-tagged CRISPR BRD4 (unknown origin) expressed in HEK293 cells co-expressing LgBiT assessed as degradation of BRD4 measured after 18 to 24 hrs by […] glo-max assay
Format: cell-based
Details: time 18-24 hrs
Active and inactive are the calls of the source. The calls are words filed in the database; no cut-off is given here.
property: Activity

Cc1sc2c(c1C)C(c1ccc(Cl)cc1)=N[C@@H](CC(=O)N1CCC(CN3CCN(c4ccc5c(c4)n(C)c(=O)n5C4CCC(=O)NC4=O)CC3)CC1)c1nnc(C)n1-2 (some centres undefined) | Active
Cc1sc2c(c1C)C(c1ccc(Cl)cc1)=N[C@@H](CC(=O)N1CCC(CN3CCN(c4ccc5c(c4)oc(=O)n5C4CCC(=O)NC4=O)CC3)CC1)c1nnc(C)n1-2 (some centres undefined) | Active
Cc1sc2c(c1C)C(c1ccc(Cl)cc1)=N[C@@H](CC(=O)N1CCC(CN3CCN(c4ccc5c(c4)C(=O)N(C4CCC(=O)NC4=O)C5=O)CC3)CC1)c1nnc(C)n1-2 (some centres undefined) | Active
Cc1sc2c(c1C)C(c1ccc(Cl)cc1)=N[C@@H](CC(=O)N1CCC(CN3CCN(c4ccc5c(c4)CN(C4CCC(=O)NC4=O)C5=O)CC3)CC1)c1nnc(C)n1-2 (some centres undefined) | Active

* * *

Molecular target: Protein cereblon/Bromodomain-containing protein 4 (Homo sapiens, UniProt O60885+Q96SW2)
Assay: PROTAC activity at CRBN/Hibit-tagged BRD4 (unknown origin) expressed in HEK293 cells co-expressing LgBiT assessed as degradation of BRD4 incubated for 24 hrs by […] glo-max assay relative to control
Type: cell-based
Hi there, I'd appreciate the recorded Emax for every entry that follows.
Report as a plain number; the unit % is understood.

## Task Return reported Emax. Input compound: Cc1sc2c(c1C)C(c1ccc(Cl)cc1)=N[C@@H](CC(=O)N1CCC(CN3CCN(c4ccc(C5CCC(=O)NC5=O)cc4)CC3)CC1)c1nnc(C)n1-2 (stereo partly drawn)
## Result 96.9

## Task Return reported Emax. Input compound: `Cc1sc2c(c1C)C(c1ccc(Cl)cc1)=N[C@@H](CC(=O)N1CCC(CN3CCN(c4ccc(N5CCC(=O)NC5=O)cc4)CC3)CC1)c1nnc(C)n1-2`
## Result 46.4

## Task Return reported Emax. Input compound: Cc1sc2c(c1C)C(c1ccc(Cl)cc1)=N[C@@H](CC(=O)N1CCC(CN3CCN(c4ccc5c(c4)n(C)c(=O)n5C4CCC(=O)NC4=O)CC3)CC1)c1nnc(C)n1-2 (stereo partly drawn)
## Result 96.9

* * *

Test: Chemical stability in human MV4-11 cell culture media assessed as half life
Type: physicochemical
property: half-life (min)
Report as a plain number; the unit min is understood.

## Task Return reported half-life. Input compound: Cc1sc2c(c1C)C(c1ccc(Cl)cc1)=N[C@@H](CC(=O)NCCCCNC(=O)COc1cccc3c1C(=O)N(C1CCC(=O)NC1=O)C3=O)c1nnc(C)n1-2 (stereo partly specified)
## Result 252

* * *

Assay: Oral bioavailability in female CD1 mouse at 10 mg/kg measured upto 24 hrs by LC-MS/MS analysis
Assay type: ADME, organism-based
Details: in vivo
property: bioavailability (%)
Report as a plain number; the unit % is understood.

## Task Return reported bioavailability. Input compound: Cc1sc2c(c1C)C(c1ccc(Cl)cc1)=N[C@@H](CC(=O)N1CCC(CN3CCN(c4ccc(C5CCC(=O)NC5=O)cc4)CC3)CC1)c1nnc(C)n1-2 (stereo partly specified)
## Result 45

* * *

Assay: Effect on BRD4 level in human MV4-11 cells assessed as fold change at 100 nM measured after 4 hrs
Format: functional
property: fold change (FC)

## Task Return reported fold change (FC). Input molecule: Cc1sc2c(c1C)C(c1ccc(Cl)cc1)=N[C@@H](CC(=O)N1CCC(CN3CCN(c4ccc5c(c4)CN(C4CCC(=O)NC4=O)C5=O)CC3)CC1)c1nnc(C)n1-2 (stereo partly specified)
## Result -3.57

## Task Return reported fold change (FC). Input molecule: Cc1sc2c(c1C)C(c1ccc(Cl)cc1)=N[C@@H](CC(=O)N1CCC(CN3CCN(c4ccc(NC5CCC(=O)NC5=O)cc4)CC3)CC1)c1nnc(C)n1-2 (stereo partly specified)
## Result -2.24

## Task Return reported fold change (FC). Input molecule: Cc1sc2c(c1C)C(c1ccc(Cl)cc1)=N[C@@H](CC(=O)N1CCC(CN3CCN(c4ccc5c(c4)C(=O)N(C4CCC(=O)NC4=O)C5=O)CC3)CC1)c1nnc(C)n1-2 (stereo partly specified)
## Result -4.11

## Task Return reported fold change (FC). Input molecule: Cc1sc2c(c1C)C(c1ccc(Cl)cc1)=N[C@@H](CC(=O)N1CCC(CN3CCN(c4cc5c(cc4F)C(=O)N(C4CCC(=O)NC4=O)C5=O)CC3)CC1)c1nnc(C)n1-2 (stereo partly specified)
## Result -3.89

## Task Return reported fold change (FC). Input molecule: `Cc1sc2c(c1C)C(c1ccc(Cl)cc1)=N[C@@H](CC(=O)N1CCC(CN3CCN(c4ccc(N5CCC(=O)NC5=O)cc4)CC3)CC1)c1nnc(C)n1-2`
## Result -2.92

## Task Return reported fold change (FC). Input molecule: Cc1sc2c(c1C)C(c1ccc(Cl)cc1)=N[C@@H](CC(=O)N1CCC(CN3CCN(c4ccc(NC5CCC(=O)NC5=O)c(F)c4)CC3)CC1)c1nnc(C)n1-2 (stereo partly specified)
## Result -3.41

* * *

Hi there, I'd appreciate the recorded Emax for every entry that follows.
Biological target: Protein cereblon/Bromodomain-containing protein 4 (Homo sapiens, UniProt O60885+Q96SW2)
Experiment: PROTAC activity at CRBN/Hibit-tagged BRD4 (unknown origin) expressed in HEK293 cells co-expressing LgBiT assessed as degradation of BRD4 incubated for 24 hrs by […] glo-max assay relative to control
Assay type: cell-based
Just the number plus its unit, please.

## Task Return reported Emax. Input molecule: Cc1sc2c(c1C)C(c1ccc(Cl)cc1)=N[C@@H](CC(=O)N1CCN(c3ccc(C4CCC(=O)NC4=O)cc3)CC1)c1nnc(C)n1-2 (some centres not stated)
## Result 10.6%

## Task Return reported Emax. Input molecule: Cc1sc2c(c1C)C(c1ccc(Cl)cc1)=N[C@@H](CC(=O)N1CC(COc3ccc(C4CCC(=O)NC4=O)cc3)C1)c1nnc(C)n1-2 (some centres not stated)
## Result 40.4%

## Task Return reported Emax. Input molecule: Cc1sc2c(c1C)C(c1ccc(Cl)cc1)=N[C@@H](CC(=O)N1CCN(CC3CCN(c4ccc(C5CCC(=O)NC5=O)cc4)CC3)CC1)c1nnc(C)n1-2 (some centres not stated)
## Result 96.9%

## Task Return reported Emax. Input molecule: Cc1sc2c(c1C)C(c1ccc(Cl)cc1)=N[C@@H](CC(=O)NCCCCCNC(=O)COc1ccc(C3CCC(=O)NC3=O)cc1)c1nnc(C)n1-2 (some centres not stated)
## Result 75.7%

## Task Return reported Emax. Input molecule: Cc1sc2c(c1C)C(c1ccc(Cl)cc1)=N[C@@H](CC(=O)N1CCC(CN3CCN(c4ccc(NC5CCC(=O)NC5=O)c(F)c4)CC3)CC1)c1nnc(C)n1-2 (some centres not stated)
## Result 79.1%

## Task Return reported Emax. Input molecule: Cc1sc2c(c1C)C(c1ccc(Cl)cc1)=N[C@@H](CC(=O)N1CCC(CN3CCN(c4ccc5c(c4)oc(=O)n5C4CCC(=O)NC4=O)CC3)CC1)c1nnc(C)n1-2 (some centres not stated)
## Result 94%

## Task Return reported Emax. Input molecule: Cc1sc2c(c1C)C(c1ccc(Cl)cc1)=N[C@@H](CC(=O)NCCCOc1ccc(C3CCC(=O)NC3=O)cc1)c1nnc(C)n1-2 (some centres not stated)
## Result 97.3%

* * *

Hi there, I'd appreciate the recorded Activity for every entry that follows.
Target: Protein cereblon/Bromodomain-containing protein 4 (Homo sapiens, UniProt O60885+Q96SW2)
Assay: PROTAC activity at CRBN/Hibit-tagged BRD4 (unknown origin) expressed in HEK293 cells co-expressing LgBiT assessed as degradation rate incubated for 24 hrs by […] glo-max assay
Assay type: cell-based
Report as a plain number; the unit fRLU/hr is understood.

## Task Return reported Activity. Input compound: Cc1sc2c(c1C)C(c1ccc(Cl)cc1)=N[C@@H](CC(=O)N1CCN(CC3CCN(c4ccc(C5CCC(=O)NC5=O)cc4)CC3)CC1)c1nnc(C)n1-2 (stereo partly specified)
## Result 0.245

## Task Return reported Activity. Input compound: Cc1sc2c(c1C)C(c1ccc(Cl)cc1)=N[C@@H](CC(=O)N1CCC(CN3CCN(c4ccc5c(c4)oc(=O)n5C4CCC(=O)NC4=O)CC3)CC1)c1nnc(C)n1-2 (stereo partly specified)
## Result 0.395

## Task Return reported Activity. Input compound: Cc1sc2c(c1C)C(c1ccc(Cl)cc1)=N[C@@H](CC(=O)N1CCC(CN3CCN(c4ccc(C5CCC(=O)NC5=O)cc4)CC3)CC1)c1nnc(C)n1-2 (stereo partly specified)
## Result 0.292

## Task Return reported Activity. Input compound: Cc1sc2c(c1C)C(c1ccc(Cl)cc1)=N[C@@H](CC(=O)N1CCC(CN3CCN(c4ccc(NC5CCC(=O)NC5=O)c(F)c4)CC3)CC1)c1nnc(C)n1-2 (stereo partly specified)
## Result 0.093

## Task Return reported Activity. Input compound: Cc1sc2c(c1C)C(c1ccc(Cl)cc1)=N[C@@H](CC(=O)N1CC(COc3ccc(C4CCC(=O)NC4=O)cc3)C1)c1nnc(C)n1-2 (stereo partly specified)
## Result 0.07

## Task Return reported Activity. Input compound: Cc1sc2c(c1C)C(c1ccc(Cl)cc1)=N[C@@H](CC(=O)N1CCC(CN3CCN(c4ccc5c(c4)n(C)c(=O)n5C4CCC(=O)NC4=O)CC3)CC1)c1nnc(C)n1-2 (stereo partly specified)
## Result 0.343
